assay endpoint: melting point

Incoming: For COc1ccc(-c2nc3n(c2-c2ccccn2)CCC3)cc1 , what is its reported melting point?
Outgoing: 142 to 145 °C

Incoming: May I ask what melting point has been recorded for c1ccc(-c2nc(-c3ccc(CN4CCCCCC4)s3)n[nH]2)nc1 ?
Outgoing: 160 to 162 °C

Incoming: Fill in the blank: the reported melting point of O=C(CCl)Nc1ccc2[nH]c(=O)oc2c1 is ____.
Outgoing: 228 to 231 °C

Incoming: Fill in: melting point of CCCN1C(=O)C(C(=O)Nc2ccc(Cl)cc2)S(=O)(=O)c2ccccc21 (stereo unspecified) is ___
Outgoing: 189 to 190 °C

Incoming: Record request: melting point value, item CN(C)CCCOc1ccc(-c2nnc(CSCCOc3ccccc3)n2Cc2ccccc2)cc1
Outgoing: 88 to 92 °C

Incoming: What does the record list as melting point for Cc1cn2c(n1)-c1ccccc1Nc1ccccc1-2 ?
Outgoing: 232 to 236 °C

Incoming: Which melting point reading was recorded for the compound COc1cc(OC)c2c(c1)OC(C)(C)CC2NNc1ncnc2c1ncn2C1OC(CO)C(O)C1O (stereo unspecified) ?
Outgoing: 111 to 113 °C

Incoming: Record request: melting point value, item O=C(O)c1ccccc1CCc1n[nH]c2c1c(=O)n(-c1ccccc1)c1ncccc21
Outgoing: 302 to 308 °C

Incoming: If you can, please state the reported melting point value of N#CCCCCCNC(N)=S .
Outgoing: 69 to 71 °C

Incoming: Please report the recorded melting point for CCN1CCCC(CC)(c2ccc(Nc3ncc4ccc(-c5ccccc5OC)n4n3)cc2)C1 (stereo unspecified) .
Outgoing: 69 to 78 °C

Incoming: What melting point value was documented for this compound, OCC1(c2c[nH]cn2)Cc2ccccc2C1 ?
Outgoing: 181 to 184 °C

Incoming: Which melting point value is on record for COc1cc(N)c(Cl)cc1C(=O)NCC1CCN(CCCCCC(=O)c2cn(C)c3ccccc23)CC1 ?
Outgoing: 125 to 127 °C

Incoming: Would you mind telling me what melting point value was observed for COc1c(OCc2ccccc2)cc(C(=O)Cl)cc1OCc1ccccc1 ?
Outgoing: 124 to 127 °C

Incoming: So what does the record say about melting point for CCCCCCCCCCCCOc1ccccc1O ?
Outgoing: 46 °C

Incoming: Need melting point, item CC(C)(C(Cl)c1ccc2c(c1)OCO2)[N+](=O)[O-] (stereo unspecified)
Outgoing: 63 to 66 °C

Incoming: Reported melting point, compound COc1ccccc1CN=C1C2CCN(CC2)C1C(c1ccccc1)c1ccccc1 (stereo unspecified) : ____
Outgoing: 154 to 158 °C

Incoming: I'd like to know its melting point. The compound in question is Nc1cc(Cl)nc(OCc2cccc3ccccc23)n1
Outgoing: 160 to 161 °C

Incoming: Consider the compound shown here: Nc1c(Cl)cnnc1Cl What is its recorded melting point?
Outgoing: 176 to 178 °C

Incoming: I'd like to know its melting point. The compound in question is CCc1cn2ccccc2c1S(=O)(=O)c1ccc(OS(=O)(=O)c2ccc(C)cc2)c(C)c1
Outgoing: 164 °C

Incoming: Record request: melting point value, item CCNC(=O)c1ccc(OCC(O)c2ccc3c(c2)C(C)(C)CCC3(C)C)cc1O (stereo unspecified)
Outgoing: 65 to 70 °C

Incoming: Requested field: melting point. Item: NS(=O)(=O)c1ccccc1OCC1CO1 (stereo unspecified)
Outgoing: 132 to 133 °C
